Hey, just so you know, these numbers are from PubChem BioAssay AID1963969.

System: 817829-284-R-J1-PDC multi-cell spheroid viability
test.protocol: Anticancer human tumor 817829-284-R-J1-PDC patient-derived colon adenocarcinoma cell line growth inhibition [PI3K]
assay.conditions: second compound 10 µM; first compound 0.0316 µM; stronger effect = lower value
parameter: viability, T/C (%)
Form entry: value (%) — number only.

Inquiry: Lab note: need viability, T/C with 817829-284-R-J1-PDC multi-cell spheroid viability for entry CC(=O)c1c(C)c2cnc(Nc3ccc(N4CCNCC4)cn3)nc2n(C2CCCC2)c1=O + Cc1nc(NC(=O)N2CCCC2C(N)=O)sc1-c1ccnc(C(C)(C)C(F)(F)F)c1 , please look it up.
Reply text: 43.8

Inquiry: Test system 817829-284-R-J1-PDC multi-cell spheroid viability; read-out viability, T/C; what value for CC1(C)CCC(CN2CCN(c3ccc(C(=O)NS(=O)(=O)c4ccc(NCC5CCOCC5)c([N+](=O)[O-])c4)c(Oc4cnc5[nH]ccc5c4)c3)CC2)=C(c2ccc(Cl)cc2)C1 + Cc1nc(NC(=O)N2CCCC2C(N)=O)sc1-c1ccnc(C(C)(C)C(F)(F)F)c1 ?
Reply text: 81.1

Inquiry: Identify the measured viability, T/C of CC(Cn1ccc(-c2ccc(C#N)c(Cl)c2)n1)NC(=O)c1cc(C(C)O)[nH]n1 (stereo unspecified) + CC(Nc1ncnc2nc[nH]c12)c1cc2cccc(Cl)c2c(=O)n1-c1ccccc1 for 817829-284-R-J1-PDC multi-cell spheroid viability.
Reply text: 67.6

Inquiry: Hello, I am looking for reported viability, T/C with 817829-284-R-J1-PDC multi-cell spheroid viability for CCCS(=O)(=O)Nc1ccc(F)c(C(=O)c2c[nH]c3ncc(-c4ccc(Cl)cc4)cc23)c1F + CC(Nc1ncnc2nc[nH]c12)c1cc2cccc(Cl)c2c(=O)n1-c1ccccc1 . Could you help?
Reply text: 72.4

Inquiry: # value lookup — system 817829-284-R-J1-PDC multi-cell spheroid viability, readout viability, T/C, item CCN1CCN(Cc2ccc(Nc3ncc(F)c(-c4cc(F)c5nc(C)n(C(C)C)c5c4)n3)nc2)CC1 + Cc1nc(NC(=O)N2CCCC2C(N)=O)sc1-c1ccnc(C(C)(C)C(F)(F)F)c1
Reply text: 51.9

Inquiry: For the record CNC(=O)c1ccc(N2C(=S)N(c3ccc(C#N)c(C(F)(F)F)c3)C(=O)C2(C)C)cc1F + Cc1nc(NC(=O)N2CCCC2C(N)=O)sc1-c1ccnc(C(C)(C)C(F)(F)F)c1 , what value of viability, T/C is listed for 817829-284-R-J1-PDC multi-cell spheroid viability?
Reply text: 60

Inquiry: Quick check: viability, T/C on 817829-284-R-J1-PDC multi-cell spheroid viability, item C=CC(=O)N1CCN(c2nc(=O)n(-c3c(C)ccnc3C(C)C)c3nc(-c4c(O)cccc4F)c(F)cc23)C(C)C1 (stereo unspecified) + Cc1nc(NC(=O)N2CCCC2C(N)=O)sc1-c1ccnc(C(C)(C)C(F)(F)F)c1 ?
Reply text: 51.5

Inquiry: Record lookup: for 817829-284-R-J1-PDC multi-cell spheroid viability, what viability, T/C belongs to CC(C)n1nc(-c2ccc3oc(N)nc3c2)c2c(N)ncnc21 + CC(Nc1ncnc2nc[nH]c12)c1cc2cccc(Cl)c2c(=O)n1-c1ccccc1 ?
Reply text: 30.3

Inquiry: Param readout = viability, T/C; param system = 817829-284-R-J1-PDC multi-cell spheroid viability; param query = CC(=O)c1c(C)c2cnc(Nc3ccc(N4CCNCC4)cn3)nc2n(C2CCCC2)c1=O + CC(Nc1ncnc2nc[nH]c12)c1cc2cccc(Cl)c2c(=O)n1-c1ccccc1 ; response: value
Reply text: 46.6

Inquiry: Query viability, T/C on 817829-284-R-J1-PDC multi-cell spheroid viability for Cn1nccc1Nc1nccc(-c2ccn(C(CO)c3ccc(Cl)c(F)c3)c(=O)c2)n1 (stereo unspecified) + Cc1nc(NC(=O)N2CCCC2C(N)=O)sc1-c1ccnc(C(C)(C)C(F)(F)F)c1
Reply text: 109

Inquiry: Query for 817829-284-R-J1-PDC multi-cell spheroid viability: what viability, T/C does the record show for C[C@@H](NC(=O)c1ncnc(N)c1Cl)c1ncc(C(=O)Nc2cc(C(F)(F)F)c(Cl)cn2)s1 + Cc1nc(NC(=O)N2CCCC2C(N)=O)sc1-c1ccnc(C(C)(C)C(F)(F)F)c1 ?
Reply text: 45.7

====

Test system: 817829-284-R-J1-PDC multi-cell spheroid viability
test.protocol: Anticancer human tumor 817829-284-R-J1-PDC cell line growth inhibition [PI3K];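 note: spheroids exposed to agents for seven days before readout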
assay.conditions: curve of first compound; second compound 0.0316 µM
parameter: IC50 (µM)
Give the value in µM but do not write µM after it.

Inquiry: // IC50 lookup, key: CC(C)NCC(C(=O)N1CCN(c2ncnc3c2C(C)CC3O)CC1)c1ccc(Cl)cc1 (stereo not given) + COc1c(OCCCN2CCOCC2)ccc2c3n(c(=NC(=O)c4cnc(N)nc4)nc12)CCN3
Reply text: 0.0767

Inquiry: IC50 lookup needed for C#Cc1c(F)ccc2cc(O)cc(-c3ncc4c(N5CC6CCC(C5)N6)nc(OCC56CCCN5CC(F)C6)nc4c3F)c12 (stereo not given) + COc1c(OCCCN2CCOCC2)ccc2c3n(c(=NC(=O)c4cnc(N)nc4)nc12)CCN3 , thanks.
Reply text: 7.45

Inquiry: What does the data say about its IC50? Entry: CCN1CCN(Cc2ccc(Nc3ncc(F)c(-c4cc(F)c5nc(C)n(C(C)C)c5c4)n3)nc2)CC1 + COc1c(OCCCN2CCOCC2)ccc2c3n(c(=NC(=O)c4cnc(N)nc4)nc12)CCN3
Reply text: 0.0575

Inquiry: What does the record list as IC50 for CNC(=O)c1ccc(N2C(=S)N(c3ccc(C#N)c(C(F)(F)F)c3)C(=O)C2(C)C)cc1F + COc1c(OCCCN2CCOCC2)ccc2c3n(c(=NC(=O)c4cnc(N)nc4)nc12)CCN3 ?
Reply text: 3.04

====

For each record, write down the corresponding viability, T/C.
System: 817829-284-R-J1-PDC multi-cell spheroid viability
test.protocol: Anticancer human tumor 817829-284-R-J1-PDC cell line growth inhibition [PI3K];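 note: spheroids exposed to agents for seven days before readout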;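 for viability, T/C: percent of vehicle DMSO control viability which is 100%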
assay.conditions: second compound 0.316 µM; first compound 0.0316 µM; stronger effect = lower value
Give just the number in %; leave the unit off.

Inquiry: Return reported viability, T/C; argument: CC1(C)CCC(Nc2ncc(C(F)(F)F)c(-c3c[nH]c4c(P(C)(C)=O)c(C#N)ccc34)n2)CN1 (stereo unspecified) + Cc1nc(NC(=O)N2CCCC2C(N)=O)sc1-c1ccnc(C(C)(C)C(F)(F)F)c1
Reply text: 25

Inquiry: viability, T/C for CNC(=O)c1ccc(N2C(=S)N(c3ccc(C#N)c(C(F)(F)F)c3)C(=O)C2(C)C)cc1F + Cc1nc(NC(=O)N2CCCC2C(N)=O)sc1-c1ccnc(C(C)(C)C(F)(F)F)c1 ?
Reply text: 106

Inquiry: Look at this molecule and give its reported viability, T/C. Cn1nccc1Nc1nccc(-c2ccn(C(CO)c3ccc(Cl)c(F)c3)c(=O)c2)n1 (stereo unspecified) + CC(Nc1ccc2c(c1)OCCn1cc(N3C(=O)OCC3C(F)F)nc1-2)C(N)=O
Reply text: 110

Inquiry: Param item = CC(=O)c1c(C)c2cnc(Nc3ccc(N4CCNCC4)cn3)nc2n(C2CCCC2)c1=O + CC(Nc1ncnc2nc[nH]c12)c1cc2cccc(Cl)c2c(=O)n1-c1ccccc1 ; retrieve measured viability, T/C.
Reply text: 56.5

Inquiry: Requested read-out: viability, T/C. Entry: CC(C)n1nc(-c2ccc3oc(N)nc3c2)c2c(N)ncnc21 + CC(Nc1ncnc2nc[nH]c12)c1cc2cccc(Cl)c2c(=O)n1-c1ccccc1
Reply text: 31.3

Inquiry: Item CC1(C)CCC(CN2CCN(c3ccc(C(=O)NS(=O)(=O)c4ccc(NCC5CCOCC5)c([N+](=O)[O-])c4)c(Oc4cnc5[nH]ccc5c4)c3)CC2)=C(c2ccc(Cl)cc2)C1 + COc1c(OCCCN2CCOCC2)ccc2c3n(c(=NC(=O)c4cnc(N)nc4)nc12)CCN3 has what recorded viability, T/C?
Reply text: 18.5

====

Test system: 817829-284-R-J1-PDC multi-cell spheroid viability
test.protocol: Anticancer human tumor 817829-284-R-J1-PDC cell line growth inhibition [PI3K];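 note: spheroids exposed to agents for seven days before readout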;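 for viability, T/C: percent of vehicle DMSO control viability which is 100%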
assay.conditions: second compound 0.00316 µM; first compound 0.316 µM; stronger effect = lower value
parameter: viability, T/C (%)
# value in %; strip the unit string

Inquiry: Requested field: viability, T/C. Item: CCN1CCN(Cc2ccc(Nc3ncc(F)c(-c4cc(F)c5nc(C)n(C(C)C)c5c4)n3)nc2)CC1 + COc1c(OCCCN2CCOCC2)ccc2c3n(c(=NC(=O)c4cnc(N)nc4)nc12)CCN3
Reply text: 50.7

Inquiry: For the molecule CC1(C)CCC(CN2CCN(c3ccc(C(=O)NS(=O)(=O)c4ccc(NCC5CCOCC5)c([N+](=O)[O-])c4)c(Oc4cnc5[nH]ccc5c4)c3)CC2)=C(c2ccc(Cl)cc2)C1 + COc1c(OCCCN2CCOCC2)ccc2c3n(c(=NC(=O)c4cnc(N)nc4)nc12)CCN3 , what viability, T/C is on record?
Reply text: 91.6

Inquiry: Item Cn1nccc1Nc1nccc(-c2ccn(C(CO)c3ccc(Cl)c(F)c3)c(=O)c2)n1 (stereo not drawn) + CC(Nc1ccc2c(c1)OCCn1cc(N3C(=O)OCC3C(F)F)nc1-2)C(N)=O has what recorded viability, T/C?
Reply text: 88.3

Inquiry: // returns reported viability, T/C for input CC(Cn1ccc(-c2ccc(C#N)c(Cl)c2)n1)NC(=O)c1cc(C(C)O)[nH]n1 (stereo not drawn) + CC(Nc1ccc2c(c1)OCCn1cc(N3C(=O)OCC3C(F)F)nc1-2)C(N)=O
Reply text: 99

Inquiry: Consider the molecule shown here: CCCS(=O)(=O)Nc1ccc(F)c(C(=O)c2c[nH]c3ncc(-c4ccc(Cl)cc4)cc23)c1F + CC(Nc1ccc2c(c1)OCCn1cc(N3C(=O)OCC3C(F)F)nc1-2)C(N)=O What is its recorded viability, T/C?
Reply text: 61.3

Inquiry: Dear colleague, I am looking for the recorded viability, T/C of the following molecule: CC1(C)CCC(Nc2ncc(C(F)(F)F)c(-c3c[nH]c4c(P(C)(C)=O)c(C#N)ccc34)n2)CN1 (stereo not drawn) + CC(Nc1ccc2c(c1)OCCn1cc(N3C(=O)OCC3C(F)F)nc1-2)C(N)=O
Reply text: 36.7

Inquiry: Suppose we examine the molecule C=CC(=O)N1CCN(c2nc(=O)n(-c3c(C)ccnc3C(C)C)c3nc(-c4c(O)cccc4F)c(F)cc23)C(C)C1 (stereo not drawn) + CC(Nc1ccc2c(c1)OCCn1cc(N3C(=O)OCC3C(F)F)nc1-2)C(N)=O ; what viability, T/C value has been reported?
Reply text: 82.9

Inquiry: For the molecule CC1(C)CCC(CN2CCN(c3ccc(C(=O)NS(=O)(=O)c4ccc(NCC5CCOCC5)c([N+](=O)[O-])c4)c(Oc4cnc5[nH]ccc5c4)c3)CC2)=C(c2ccc(Cl)cc2)C1 + CC(Nc1ccc2c(c1)OCCn1cc(N3C(=O)OCC3C(F)F)nc1-2)C(N)=O , what viability, T/C is on record?
Reply text: 38.3

Inquiry: Which viability, T/C value belongs to C[C@@H](NC(=O)c1ncnc(N)c1Cl)c1ncc(C(=O)Nc2cc(C(F)(F)F)c(Cl)cn2)s1 + COc1c(OCCCN2CCOCC2)ccc2c3n(c(=NC(=O)c4cnc(N)nc4)nc12)CCN3 ?
Reply text: 59.9

Inquiry: Quick one: viability, T/C of Cn1ncc(Cl)c1-c1cc(C(=O)NC(CN)Cc2cccc(F)c2)sc1Cl (stereo not drawn) + COc1c(OCCCN2CCOCC2)ccc2c3n(c(=NC(=O)c4cnc(N)nc4)nc12)CCN3 ?
Reply text: 21.1

Inquiry: Please give the measured viability, T/C for this molecule: C#Cc1c(F)ccc2cc(O)cc(-c3ncc4c(N5CC6CCC(C5)N6)nc(OCC56CCCN5CC(F)C6)nc4c3F)c12 (stereo not drawn) + CC(Nc1ccc2c(c1)OCCn1cc(N3C(=O)OCC3C(F)F)nc1-2)C(N)=O
Reply text: 87.4

Inquiry: Need viability, T/C of Cn1ncc(Cl)c1-c1cc(C(=O)NC(CN)Cc2cccc(F)c2)sc1Cl (stereo not drawn) + CC(Nc1ccc2c(c1)OCCn1cc(N3C(=O)OCC3C(F)F)nc1-2)C(N)=O , thanks.
Reply text: 22.8

Inquiry: Dear colleague, I am looking for the recorded viability, T/C of the following molecule: CNC(=O)c1ccc(N2C(=S)N(c3ccc(C#N)c(C(F)(F)F)c3)C(=O)C2(C)C)cc1F + COc1c(OCCCN2CCOCC2)ccc2c3n(c(=NC(=O)c4cnc(N)nc4)nc12)CCN3
Reply text: 118

Inquiry: Consider the molecule CNC(=O)c1ccc(N2C(=S)N(c3ccc(C#N)c(C(F)(F)F)c3)C(=O)C2(C)C)cc1F + CC(Nc1ccc2c(c1)OCCn1cc(N3C(=O)OCC3C(F)F)nc1-2)C(N)=O and give its measured viability, T/C.
Reply text: 109

Inquiry: Could you tell me which viability, T/C is on file for CC(C)NCC(C(=O)N1CCN(c2ncnc3c2C(C)CC3O)CC1)c1ccc(Cl)cc1 (stereo not drawn) + COc1c(OCCCN2CCOCC2)ccc2c3n(c(=NC(=O)c4cnc(N)nc4)nc12)CCN3 ?
Reply text: 54.5

Inquiry: # get_value(readout='viability, T/C', item= CC(Cn1ccc(-c2ccc(C#N)c(Cl)c2)n1)NC(=O)c1cc(C(C)O)[nH]n1 (stereo not drawn) + COc1c(OCCCN2CCOCC2)ccc2c3n(c(=NC(=O)c4cnc(N)nc4)nc12)CCN3 )
Reply text: 101

Inquiry: // viability, T/C lookup, key: C#Cc1c(F)ccc2cc(O)cc(-c3ncc4c(N5CC6CCC(C5)N6)nc(OCC56CCCN5CC(F)C6)nc4c3F)c12 (stereo not drawn) + COc1c(OCCCN2CCOCC2)ccc2c3n(c(=NC(=O)c4cnc(N)nc4)nc12)CCN3
Reply text: 83.7

Inquiry: Could you share which viability, T/C value was measured for CCCS(=O)(=O)Nc1ccc(F)c(C(=O)c2c[nH]c3ncc(-c4ccc(Cl)cc4)cc23)c1F + COc1c(OCCCN2CCOCC2)ccc2c3n(c(=NC(=O)c4cnc(N)nc4)nc12)CCN3 ?
Reply text: 71.5
